Below, each entry is listed with its recorded pIC50.
Molecular target: human kinesin spindle protein KSP/Eg5 (Homo sapiens, UniProt P52732)
Construct: The motor domain of the human kinesin spindle protein KSP/Eg5
Assay: Inhibition of the kinesin spindle protein KSP/Eg5 (ATPase, malachite green)
Details: 10 nM KSP motor domain, 500 μM ATP, 2 h RT
On this scale, pIC50 is minus log10 of a concentration expressed in M (mol/L).

CC(C)[C@H](NC(=O)CCNC(=O)[C@@H](N)CCN(C(=O)CO)[C@@H](c1nc(-c2cc(F)ccc2F)cn1Cc1ccccc1)C(C)(C)C)C(=O)N[C@@H](CCCNC(N)=O)C(=O)O.O=C(O)C(F)(F)F :: 8.31
CC(C)(C)[C@H](c1nc(-c2cc(F)ccc2F)cn1Cc1ccccc1)N(CC[C@H](N)C(=O)NCCCC[C@H](N)C(=O)O)C(=O)CO.O=C(O)C(F)(F)F :: 8.37
CC(C)(C)[C@H](c1cc(-c2cc(F)ccc2F)cn1Cc1ccccc1)N(CC[C@H](N)C(=O)NCCC(=O)O)C(=O)CO :: 9.97

Now for a further molecule.
Respond only with pIC50 recorded for "CC(C)(C)[C@H](c1nc(-c2cc(F)ccc2F)cn1Cc1ccccc1)N(CC[C@H](N)C(=O)N(N)CC(=O)O)C(=O)CO"
8.85

====

Test: Cell permeability, flux assay using Caco-2 cells
Conditions: human, Caco-2
Heads up, the class ranges for efflux ratio at 2 h are Low: < 3; Medium: ≥ 3 and < 10; High: ≥ 10

Look over these answered cases.
CC(C)(C)[C@H](c1nc(-c2cc(F)ccc2F)cn1Cc1ccccc1)N(CC[C@H](N)C(=O)N[C@H]1CCC[C@H]1C(=O)NCCN1C(=O)CC(SC[C@H](N)C(=O)O)C1=O)C(=O)CO (stereo partly drawn) [Example 67] :: High
CC(C)(C)[C@H](c1nn(-c2cc(F)ccc2F)cc1Cc1ccccc1)N(CC[C@H](N)C(=O)NCCNC(=O)CSC[C@H](N)C(=O)O)C(=O)CO.O=C(O)C(F)(F)F [Example 136] :: Medium
CC(C)[C@H](NC(=O)CCCCCN1C(=O)CC(SC[C@H](N)C(=O)O)C1=O)C(=O)N[C@@H](CCCNC(N)=O)C(=O)N[C@@H](CCCCNC(=O)[C@@H](N)CCN(C(=O)CO)[C@@H](c1nn(-c2cc(F)ccc2F)cc1Cc1ccccc1)C(C)(C)C)C(=O)O (stereo partly drawn) [Example 134] :: Low
CC(C)(C)[C@H](c1cc(-c2cc(F)ccc2F)cn1Cc1ccccc1)N(CC[C@H](N)C(=O)NCCNC(=O)CN1C(=O)CC(SC[C@H](N)C(=O)O)C1=O)C(=O)CO.O=C(O)C(F)(F)F (stereo partly drawn) [Example 135] :: Medium
CC(C)(C)[C@H](c1cc(-c2cc(F)ccc2F)cn1Cc1ccccc1)N(CCCN)C(=O)CSCCC(NC(=O)CCOCCOCCOCCOCCNC(=O)CCN1C(=O)CC(SC[C@H](N)C(=O)O)C1=O)C(=O)O.O=C(O)C(F)(F)F (mixture of isomers) [Example 138] :: Low
CC(C)(C)[C@H](c1nc(-c2cc(F)ccc2F)cn1Cc1ccccc1)N(CC[C@H](N)C(=O)NCCNC(=O)CN1C(=O)CC(SC[C@H](N)C(=O)O)C1=O)C(=O)CO.O=C(O)C(F)(F)F (stereo partly drawn) [Example 64] :: Low
CC(C)(C)[C@H](c1nc(-c2cc(F)ccc2F)cn1Cc1ccccc1)N(CC[C@H](N)C(=O)NCCOCCN1C(=O)CC(SC[C@H](N)C(=O)O)C1=O)C(=O)CO (stereo partly drawn) [Example 62] :: Medium

In the following, a different compound is considered.
Would you mind sorting CC(C)(C)[C@H](c1nn(-c2cc(F)ccc2F)cc1Cc1ccccc1)N(CC[C@H](N)C(=O)NNC(=O)CCCCCN1C(=O)CC(SC[C@H](N)C(=O)O)C1=O)C(=O)CO.O=C(O)C(F)(F)F (stereo partly drawn) [Example 137] into the appropriate category?
High

====

Target: human kinesin spindle protein KSP/Eg5 (Homo sapiens)
Construct: The motor domain of the human kinesin spindle protein KSP/Eg5
Test: Inhibition of the kinesin spindle protein KSP/Eg5 (ATPase, malachite green)
Details: 10 nM KSP motor domain, 500 μM ATP, 2 h RT
PROPERTY_LABEL: pIC50
On this scale, pIC50 is minus log10 of a concentration expressed in M (mol/L).

Some entries whose results are on file:
COC(=O)CCC(=O)N(CCCN)[C@@H](c1cc(-c2cc(F)ccc2F)cn1Cc1ccccc1)C(C)(C)C :: 9.71
CC(C)(C)[C@H](c1cc(-c2cc(F)ccc2F)cn1Cc1ccccc1)N(CCCN)C(=O)CSC[C@H](NC(=O)CCOCCOCCOCCOCCNC(=O)CCN1C(=O)CC(SC[C@H](N)C(=O)O)C1=O)C(=O)O.O=C(O)C(F)(F)F.O=C(O)C(F)(F)F (stereo partly drawn) :: 8.83

Now for a further compound.
Respond only with pIC50 recorded for "CC(C)(C)[C@H](c1cc(-c2cc(F)ccc2F)cn1Cc1ccccc1)N(CC[C@H](N)C(=O)NCC(=O)O)C(=O)CO"
9.64

====

Test: Cell permeability, flux assay using Caco-2 cells
Conditions: human, Caco-2
PROPERTY_LABEL: Papp B→A at 2 h (×10⁻⁶ cm/s)
Note: unit ×10⁻⁶ cm/s is implicit; provide only the numeric part.

Some entries whose results are on file:
CC(C)(C)[C@H](c1cc(-c2cc(F)ccc2F)cn1Cc1ccccc1)N(CC[C@H](N)C(=O)NCCNC(=O)CSC[C@H](N)C(=O)O)C(=O)CO.O=C(O)C(F)(F)F :: 0.56
C[C@H](NC(=O)CCNC(=O)[C@@H](N)CCN(C(=O)CO)[C@@H](c1nc(-c2cc(F)ccc2F)cn1Cc1ccccc1)C(C)(C)C)C(=O)N[C@@H](CCCNC(N)=O)C(=O)O.O=C(O)C(F)(F)F :: 0.46

Respond only with Papp B→A at 2 h recorded for "CNC(=O)[C@@H](N)CCN(C(=O)CO)[C@@H](c1cc(-c2cc(F)ccc2F)cn1Cc1ccccc1)C(C)(C)C.O=C(O)C(F)(F)F"
30.3

Respond only with Papp B→A at 2 h recorded for CC(C)(C)[C@H](c1nc(-c2cc(F)ccc2F)cn1Cc1ccccc1)N(CC[C@H](N)C(=O)N[C@H]1CCC[C@H]1C(=O)NCCN1C(=O)CC(SC[C@H](N)C(=O)O)C1=O)C(=O)CO (some centres unmarked)
2.5

Respond only with Papp B→A at 2 h recorded for CC(C)(C)[C@H](c1nc(-c2cc(F)ccc2F)cn1Cc1ccccc1)N(CC[C@H](N)C(=O)NCCN1C(=O)CC(SC[C@H](N)C(=O)O)C1=O)C(=O)CO (some centres unmarked)
4.4

====

Target: human kinesin spindle protein KSP/Eg5 (Homo sapiens)
Construct: The motor domain of the human kinesin spindle protein KSP/Eg5
Sequence (P52732 18-359 limits assumed): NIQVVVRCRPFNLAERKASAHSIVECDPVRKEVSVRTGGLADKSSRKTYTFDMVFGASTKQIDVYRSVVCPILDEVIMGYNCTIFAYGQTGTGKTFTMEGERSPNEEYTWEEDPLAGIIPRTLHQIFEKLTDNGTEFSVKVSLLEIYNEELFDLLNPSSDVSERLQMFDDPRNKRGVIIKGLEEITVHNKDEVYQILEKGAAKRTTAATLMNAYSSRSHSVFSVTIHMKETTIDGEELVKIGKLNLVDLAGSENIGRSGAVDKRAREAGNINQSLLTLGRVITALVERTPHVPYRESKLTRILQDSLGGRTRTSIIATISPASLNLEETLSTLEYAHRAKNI
Assay: Inhibition of the kinesin spindle protein KSP/Eg5 (ATPase, malachite green)
Conditions: 10 nM KSP motor domain, 500 μM ATP, 2 h RT
Below, each entry is listed with its recorded IC50.
Note: unit nM is implicit; provide only the numeric part.

CC(C)(C)[C@H](c1nc(-c2cc(F)ccc2F)cn1Cc1ccccc1)N(CC[C@H](N)C(=O)NCCOCCOCCOCCC(=O)O)C(=O)CO.O=C(O)C(F)(F)F :: 1.22
C[C@@H](NC(=O)[C@@H](N)CCN(C(=O)CO)[C@@H](c1nc(-c2cc(F)ccc2F)cn1Cc1ccccc1)C(C)(C)C)C(=O)NCCCC[C@H](N)C(=O)O.O=C(O)C(F)(F)F :: 0.311

Now for a further compound.
Respond only with IC50 recorded for CC(C)(C)[C@H](c1nc(-c2cc(F)ccc2F)cn1Cc1ccccc1)N(CC(CN)CS)C(=O)CO (single isomer, unassigned; isomer 1) [Example 93]
2.52

====

Below, each entry is listed with its recorded pIC50.
Target: human kinesin spindle protein KSP/Eg5 (Homo sapiens)
Construct: The motor domain of the human kinesin spindle protein KSP/Eg5
Sequence (P52732 18-359 limits assumed): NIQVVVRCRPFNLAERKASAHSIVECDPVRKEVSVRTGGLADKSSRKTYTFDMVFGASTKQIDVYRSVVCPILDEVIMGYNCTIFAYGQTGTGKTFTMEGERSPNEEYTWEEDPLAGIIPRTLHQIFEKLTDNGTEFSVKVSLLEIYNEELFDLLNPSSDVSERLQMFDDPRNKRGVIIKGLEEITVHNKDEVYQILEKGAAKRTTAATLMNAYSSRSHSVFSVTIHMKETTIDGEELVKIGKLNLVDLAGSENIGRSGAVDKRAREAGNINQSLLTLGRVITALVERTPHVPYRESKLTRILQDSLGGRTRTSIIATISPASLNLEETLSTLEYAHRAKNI
Test: Inhibition of the kinesin spindle protein KSP/Eg5 (ATPase, malachite green)
Settings: 10 nM KSP motor domain, 500 μM ATP, 2 h RT
On this scale, pIC50 is minus log10 of a concentration expressed in M (mol/L).

Some entries whose results are on file:
CC(C)(C)[C@H](c1cc(-c2cc(F)ccc2F)cn1Cc1ccccc1)N(CCCN)C(=O)c1ccc(N)cc1 :: 8.41
CC(C)(C)[C@H](c1cc(-c2cc(F)ccc2F)cn1Cc1ccccc1)N(CC[C@H](N)C(=O)NCCN)C(=O)CO.O=C(O)C(F)(F)F :: 7.97
C[C@H](O)C(=O)N(CCCN)[C@@H](c1cc(-c2cc(F)ccc2F)cn1Cc1ccccc1)C(C)(C)C :: 9.95
CC(C)(C)[C@H](c1nc(-c2cc(F)ccc2F)cn1Cc1ccccc1)N(CC[C@H](N)CN)C(=O)CO.O=C(O)C(F)(F)F :: 8.31
CSCC(=O)N(CCCN)[C@@H](c1cc(-c2cc(F)ccc2F)cn1Cc1ccccc1)C(C)(C)C :: 8.80

Respond only with pIC50 recorded for CC(C)(C)[C@H](c1cc(-c2cc(F)ccc2F)cn1Cc1ccccc1)N(CC[C@H](N)C(=O)NCCN1C(=O)CC(SC[C@H](N)C(=O)O)C1=O)C(=O)CO.O=C(O)C(F)(F)F.O=C(O)C(F)(F)F (stereo partly shown)
8.74

Respond only with pIC50 recorded for "CSc1ccc(C(=O)N(CCCN)[C@@H](c2cc(-c3cc(F)ccc3F)cn2Cc2ccccc2)C(C)(C)C)cc1"
8.84

Respond only with pIC50 recorded for CC(C)[C@H](NC(=O)CCCCCN1C(=O)CC(SC[C@H](N)C(=O)O)C1=O)C(=O)N[C@@H](C)C(=O)N[C@@H](CCCCNC(=O)[C@@H](N)CCN(C(=O)CO)[C@@H](c1nc(-c2cc(F)ccc2F)cn1Cc1ccccc1)C(C)(C)C)C(=O)O.O=C(O)C(F)(F)F (stereo partly shown)
8.54

Respond only with pIC50 recorded for C[C@H](NC(=O)CCNC(=O)[C@@H](N)CCN(C(=O)CO)[C@@H](c1nc(-c2cc(F)ccc2F)cn1Cc1ccccc1)C(C)(C)C)C(=O)N[C@@H](CCCNC(N)=O)C(=O)Nc1ccc(CC(=O)NCCN2C(=O)CC(SC[C@H](N)C(=O)O)C2=O)cc1 (stereo partly shown)
8.50
